Collected from the literature: Ki of various molecules toward UniProt P47898.

Qu. Dear colleague, please send me the reported Ki for NC(N)=NC(=O)c1ccc2cccc(-c3ccc(Cl)nc3Cl)c2c1 when you can.
Ans. 3 to 30 nM

Qu. Report measured Ki; entry is COc1ccccc1CNC(=N)Nc1nc(-c2ccccc2)co1
Ans. 50 to 500 nM

Qu. Answer with reported Ki of COc1ccc(-n2cc(Cc3ccccc3OC)c(N)n2)cc1
Ans. > 600 nM

Qu. Provide measured Ki value, entry: COc1cccc(C2=CCCc3ccc(C(=O)N=C(N)N)cc32)c1C#N
Ans. 30 to 300 nM

Qu. For N#Cc1ccccc1C1=CCSc2ccc(C(=O)N=C(N)N)cc21 , write its Ki.
Ans. 3 to 30 nM

Qu. Supply reported Ki belonging to this molecule: CC1C=C(c2c(F)cccc2F)c2cc(C(=O)N=C(N)N)ccc2O1 (centres unmarked)
Ans. 3 to 30 nM

Qu. Note down Ki recorded for COCCCN/C(N)=N/C(=O)c1ccc2c3ccccc3n(C3CCOCC3)c2c1
Ans. ≤ 50 nM

Qu. Specify measured Ki for NC(N)=NC(=O)c1ccc2c(c1)C(C1CCOCC1)=CCC2 .
Ans. 3 to 30 nM

Qu. Entry COc1cccc(OC)c1CNC(=N)Nc1nc(C(F)(F)F)cs1 needs its Ki filled in; supply it.
Ans. 50 to 500 nM

Qu. Tell me Ki reported for COc1cccc(OC)c1CNC(=N)Nc1nc(C)cs1
Ans. < 50 nM

Qu. Identify measured Ki corresponding to COc1cccc(OC)c1Cc1cc2ccccc2nc1N
Ans. < 300 nM

Qu. Return Ki (reported value) for this molecule: COc1cccc(Cl)c1CNC(=N)Nc1nc(-c2ccc(Cl)cn2)cs1
Ans. 50 to 500 nM

Qu. Fill in Ki for record COc1ccccc1Cc1cc2ccncc2nc1N
Ans. < 300 nM

Qu. Output Ki of N#Cc1ccc2ccc(C(=O)N=C(N)N)cc2c1-c1c(F)cncc1F
Ans. 1 to 30 nM

Qu. Report Ki, nothing else, for this molecule: COc1ccccc1Cn1cc(C(C)(C)C)nc1N
Ans. > 600 nM

Qu. Indicate its recorded Ki; the molecule in question is COc1cccc(C2=CCCc3ccc(C(=O)N=C(N)N)cc32)c1
Ans. 3 to 30 nM

Qu. Identify Ki associated with the molecule COc1ccc(C2=CCCc3ccc(C(=O)N=C(N)N)cc32)c(F)c1
Ans. 0.3 to 3 nM

Qu. Look up and state reported Ki for NC(N)=NC(=O)c1ccc2cccc(-c3sccc3Cl)c2c1
Ans. 0.3 to 3 nM

Qu. Supply recorded Ki for C=CCNC(=O)c1csc(NC(=N)NCc2c(OC)cccc2OC)n1 here.
Ans. < 50 nM

Qu. Supply reported Ki belonging to this molecule: NC(N)=NC(=O)c1ccc2c(c1)C(c1ccc(F)nc1)=CCC2
Ans. 3 to 30 nM

Qu. Given the molecule COc1cccc(OC)c1CNC(=N)Nc1nc2c(s1)CN(Cc1ccccc1)CC2 , write its reported Ki.
Ans. < 50 nM

Qu. Could you please provide reported Ki for COc1cccc(F)c1Cc1cc2cc(F)ccc2nc1N ? Thanks!
Ans. < 300 nM

Qu. In one line, give reported Ki of the entry N#Cc1ccc2ccc(C(=O)N=C(N)N)cc2c1-c1c(F)cc(CO)cc1F .
Ans. 30 to 300 nM

Qu. Consider the molecule NC(N)=NC(=O)c1ccc2cccc(-c3ccc(F)cc3Cl)c2c1 . State its measured Ki.
Ans. 0.3 to 3 nM

Qu. Give Ki for the following molecule: NC(N)=NC(=O)c1ccc2cccc(-c3c(F)cc(F)c(O)c3F)c2c1
Ans. 0.3 to 3 nM

Qu. Determine from records and report Ki for Cc1ccc(C2=CCSc3ccc(C(=O)N=C(N)N)cc32)c(F)c1
Ans. 3 to 30 nM

Qu. Please indicate Ki recorded for COc1cc(F)cc(F)c1-c1cccc2ccc(C(=O)N=C(N)N)cc12
Ans. 0.3 to 3 nM

Qu. Give the reported Ki for this molecule. COc1cccc(OC)c1Cn1cc(-c2cccs2)nc1N
Ans. < 600 nM

Qu. Input CCCCS(=O)(=O)NCc1csc(NC(=N)NCc2c(OC)cccc2OC)n1 , output reported Ki.
Ans. < 50 nM

Qu. Note Ki for the molecule shown: NC(N)=NC(=O)c1ccc2oc(=O)cc(-c3c(F)cc(F)cc3F)c2c1
Ans. 30 to 300 nM

Qu. Name the recorded Ki of the item NC(N)=NC(=O)c1ccc2cccc(-c3c(Cl)cccc3Cl)c2c1 in your answer.
Ans. 0.3 to 3 nM

Qu. Identify measured Ki corresponding to CS(=O)(=O)c1ccc(C2=CCCc3ccc(C(=O)N=C(N)N)cc32)cc1
Ans. 30 to 300 nM

Qu. Report measured Ki; entry is COc1ccccc1CN1Cc2cc(Cl)ccc2N=C1N
Ans. < 300 nM

Qu. Read off the recorded Ki for Cc1ccc2ccc(C(=O)N=C(N)N)cc2c1-c1ccncc1F
Ans. 0.3 to 3 nM

Qu. Identify measured Ki associated with COc1cc2cc(Cc3c(OC)cccc3OC)c(N)nc2cc1OC
Ans. < 300 nM

Qu. Quick one: give measured Ki for COc1cccc(OC)c1CNC(=N)Nc1nnc(C)[nH]1
Ans. < 50 nM

Qu. In one line, give reported Ki of the entry COc1ccccc1CNC(=N)Nc1cc(C(C)(C)C)[nH]n1 .
Ans. 50 to 500 nM

Qu. Provide Ki value for the following molecule: NC(N)=NC(=O)c1ccc2cccc(-c3ccnc(C4CC4)c3F)c2c1
Ans. 0.3 to 3 nM
